Test system: Plasmodium falciparum
Assay: Calibr Malaria Delayed Death Assay SOP
Assay type: functional, organism-based
Design: scale not given: in the data most compounds retested in dose-response had high values
Details: concentration 4.99e-06 (unit not given; other assays of the set use mol/L)
The whole screen tested about 38,000 compounds, of which about 1,200 (3.2%) showed an effect of 50% or more. The median lay at about -58%. The sample holds strong results, similar compounds and a random draw of the others, so the mix is not that of the screen.
Please enter label 1 where Percent Effect is greater than or equal to 20%, and label 0 where it is lower.

A selection of reference data follows.
Cc1nc(N2CCCC2)nc2c1CCN(C(=O)N(C)C)CC2	label 0
Cc1ccccc1C(Nc1ncnc2c1CCNC2)c1ccccc1 (stereo not given)	label 1
CC(C)Nc1nc(N2CCCC2)nc2c1CN(c1ncc(F)cn1)CC2	label 1
CCOc1ccc(C(=O)N2CCCCC2Cn2nc(C)cc2C)cn1 (stereo not given)	label 0
CN(C)C(=O)c1nn(C)c2c1CN(Cc1cccs1)C2.O=C(O)C(F)(F)F.O=C(O)C(F)(F)F	label 0
CCCN1CCc2nc(N3CCOCC3)nc(NC(C)C)c2C1	label 0
CN1CCC(NCC(O)c2cccc(OCc3ccccc3)c2)CC1 (stereo not given)	label 1
COc1cccc(OC2CN(C(=O)c3c(C)noc3C)C2)c1	label 0
Nc1cc(C(=O)NC2CCCN(CCCc3ccccc3)C2)ccn1 (stereo not given)	label 0
Nc1ncncc1-c1noc([C@@H]2CCCN2CCCc2ccccc2)n1	label 0

Exam item: Please check the record `Cc1ccc(-c2cc(C(=O)NCCCc3csc(N)n3)[nH]n2)o1` and state if its Percent Effect is at or above 20%.
Marked response: label 0

###

# Percent Effect per entry
Tested on: Plasmodium falciparum
Assay: Calibr Malaria Delayed Death Assay SOP
Assay type: functional, organism-based
Design: scale not given: in the data most compounds retested in dose-response had high values
Conditions: concentration 4.99e-06 (unit not given; other assays of the set use mol/L)
The campaign covered roughly 38,000 compounds. About 1,200 (3.2%) showed an effect of 50% or more. The median lay at about -58%. The entries come from a sample that favours strong results as a whole.
Report field: quantity (unit follows the number).

COCCCn1ccc(NC(=O)NCCCn2ccnc2)n1	-63.56%
C[C@]1(O)CN(Cc2ncccc2F)CC[C@@H]1Oc1cccc(F)c1	-43.28%
CCNC(=O)[C@@H]1C[C@H](N)CN1c1cc(C(F)(F)F)nc(N2CCCC2)n1	54.16%
CCS(=O)(=O)N1CCC2(CC1)CN(CC1CCOC1)c1ccccc12.O=C(O)C(F)(F)F (stereo not drawn)	19.88%
CC1(C)CC(=O)c2cnc3nc(N4CCCCC4)nc(O)c3c2C1	-100.7%

Exam item: Give the reported value of Percent Effect for this record: `CO[C@@H]1CN(c2ccccc2)S(=O)(=O)[C@@]12CCNC2`
Marked response: -24.96%

Exam item: Give the reported value of Percent Effect for this record: `Cc1cnc(N2CCC3(CCN(CC4CC4)C3=O)CC2)nc1`
Marked response: -170.6%

Exam item: Give the reported value of Percent Effect for this record: Cc1ccc(N2CCCC(NCc3cnc(C)s3)C2)nn1 (stereo not drawn)
Marked response: -130.3%

Exam item: Give the reported value of Percent Effect for this record: `O=C(CCc1nnc2ccccn2c1=O)NCc1cccnc1`
Marked response: -35.93%

Exam item: Give the reported value of Percent Effect for this record: `CCNC(=O)[C@@H]1C[C@H](N)CN1c1cc(CC)nc(N(C)C)n1`
Marked response: -75.2%

Exam item: Give the reported value of Percent Effect for this record: Cn1cc(N2CCC3(CCCN(Cc4ccoc4)C3)C2=O)cn1 (stereo not drawn)
Marked response: -100.7%

Exam item: Give the reported value of Percent Effect for this record: `CCOc1cccc(C(=O)N(CCC#N)Cc2ccccn2)c1`
Marked response: -89.54%

Exam item: Give the reported value of Percent Effect for this record: COCCN1CCCC2(CCN(Cc3nnc(C4CC4)o3)C2)C1=O (stereo not drawn)
Marked response: -62.36%

Exam item: Give the reported value of Percent Effect for this record: `CN(C)CCN1CCOCC12CCN(C(=O)C1CC1)CC2.O=C(O)C(F)(F)F.O=C(O)C(F)(F)F`
Marked response: -16.92%

Exam item: Give the reported value of Percent Effect for this record: `O=C(O)C(F)(F)F.O=C(O)C(F)(F)F.OCCN1CC2(CCN(CC3CC3)CC2)c2ccccc21`
Marked response: -50.6%

###

Tested on: Plasmodium falciparum
Assay: Calibr Malaria Delayed Death Assay SOP
Type: functional, organism-based
Set-up: scale not given: in the data most compounds retested in dose-response had high values
Settings: concentration 4.99e-06 (unit not given; other assays of the set use mol/L)
About 1,200 (3.2%) of roughly 38,000 compounds showed an effect of 50% or more. The median lay at about -58%. The full list was thinned out, with strong results kept by preference.
Lab note: compare Percent Effect with -40%, writing criterion met if less and criterion not met if equal or more.

A selection of reference data follows.
O=C(COCCc1ccccc1)N1CCCC(n2cncn2)C1 (stereo not drawn)	criterion not met
COc1c(CNC2CCc3cc(Cl)ccc32)c(C)nn1C (stereo not drawn)	criterion not met
COc1c(CNC2(c3noc(C)n3)CCC2)c(C)nn1C.Cl	criterion met
O=C(CCc1cccnc1)N1CCC2(CCN(CC3CCCC3)C2)C1.O=C(O)C(F)(F)F.O=C(O)C(F)(F)F (stereo not drawn)	criterion not met

Exam item: Just wondering, is Percent Effect of `COc1ccc(-c2cc(CN)ccc2F)c(OC)c1OC` below -40%?
Marked response: criterion not met

Exam item: Just wondering, is Percent Effect of Cc1cccc(CNC(CN2CCN(C)CC2)c2ccccc2)c1 (stereo not drawn) below -40%?
Marked response: criterion not met

Exam item: Just wondering, is Percent Effect of CC(C)C(NC(=O)N1CCS(=O)(=O)CC1)c1ccccc1Cl (stereo not drawn) below -40%?
Marked response: criterion met

Exam item: Just wondering, is Percent Effect of `COCCN1Cc2ccccc2C2(CCN(C(=O)c3ccno3)CC2)C1` below -40%?
Marked response: criterion not met

Exam item: Just wondering, is Percent Effect of `c1ccc2c(c1)COC1(CCCC1)N2` below -40%?
Marked response: criterion met

Exam item: Just wondering, is Percent Effect of `Cc1ccc(CNCc2c(C(C)C)nn(C)c2N2CCOCC2)s1` below -40%?
Marked response: criterion not met

Exam item: Just wondering, is Percent Effect of `CCO[C@H]1CC[C@H]2[C@H]1OCCN2C(=O)CC1=CCCCC1` below -40%?
Marked response: criterion met

###

# Percent Effect per entry
System: Plasmodium falciparum
Test: Calibr Malaria Delayed Death Assay SOP
Type: functional, organism-based
Design: scale not given: in the data most compounds retested in dose-response had high values
Conditions: concentration 4.99e-06 (unit not given; other assays of the set use mol/L)
In all, about 38,000 compounds went through this assay and about 1,200 (3.2%) showed an effect of 50% or more. The median lay at about -58%. Many of the other results were omitted from the sample, so strong results are more common in it than they were.
Write down the numeric answer in % and omit the unit.

// worked examples, Percent Effect included
O=C(C1CC1)N1CCC2(CC1)COCCN2Cc1ccc(F)cc1.O=C(O)C(F)(F)F	-44.57
COC(=O)c1cccc(C(=O)N2CCN(c3ccc(Cl)cc3)CC2)n1	-128.8

// switching to the query molecule
Exam item: Recall the reported Percent Effect of `CCCN(CCC)c1nc(N)nc(-c2cc(Cl)ccc2OC)n1` when tested on Plasmodium falciparum.
Marked response: -49.81

###

# Percent Effect per entry
Tested on: Plasmodium falciparum
Assay: Calibr Malaria Delayed Death Assay SOP
Type: functional, organism-based
Design: scale not given: in the data most compounds retested in dose-response had high values
Conditions: concentration 4.99e-06 (unit not given; other assays of the set use mol/L)
The campaign covered roughly 38,000 compounds. About 1,200 (3.2%) showed an effect of 50% or more. The median lay at about -58%. The full list was thinned out, with strong results kept by preference.
Write down the numeric answer in % and omit the unit.

Cc1noc(C2CCC3(CCN(C(=O)c4ccnnc4)CC3)O2)n1 (stereo not given)	-55.26
CC1CCN(C(=O)c2ccc(N(C)Cc3cnn(C)c3)nc2)CC1	-165.6

Exam item: Give the reported value of Percent Effect for this record: `O=C(NC1CCCCC1)c1cc(Br)cnc1N1CCCCC1`
Marked response: -52.51

Exam item: Give the reported value of Percent Effect for this record: `Fc1ccc(Cc2cccc(C3CCN(C4CCOCC4)CC3)n2)cc1`
Marked response: 38.56

Exam item: Give the reported value of Percent Effect for this record: `NC(=O)C1CCN(C(=O)c2ccc(Sc3ccccn3)cc2)CC1`
Marked response: -20.82

Exam item: Give the reported value of Percent Effect for this record: CCOCC(O)CN1CCN(C(=O)Cc2ccccc2Cl)CC1 (stereo not given)
Marked response: -127.6

###

System: Plasmodium falciparum
Test: Calibr Malaria Delayed Death Assay SOP
Type: functional, organism-based
Design: scale not given: in the data most compounds retested in dose-response had high values
Details: concentration 4.99e-06 (unit not given; other assays of the set use mol/L)
Screen size: about 38,000 compounds; about 1,200 (3.2%) showed an effect of 50% or more. The median lay at about -58%. Shown is part of a subset that was picked to be rich in strong results.
# Percent Effect per entry

// worked examples, Percent Effect included
COc1cccc(-c2cc(C(=O)NCCCn3cnnc3)[nH]n2)c1	-185.9%
CCC(=O)NCC(=O)N(C)C(c1ccc(Cl)cc1)c1cccnc1 (centres undefined)	-30.63%
O=C1CC(c2ccncc2)c2c(c(C(=O)O)cn2-c2ccccc2)N1 (centres undefined)	-138.8%
COc1nn(C)cc1-c1nnc(SCc2cccnc2)n1C	-46.9%
CN(Cc1ccc(C#N)cc1)CC1CCS(=O)(=O)C1 (centres undefined)	-39.39%
O[C@H]1[C@H](n2cc(-c3cccnc3)nn2)c2ccccc2C12CCNCC2	-21.88%

Exam item: Give the reported value of Percent Effect for this record: CC1CN(C)c2ccccc2CN1C(=O)c1cc(C#N)cn1C (centres undefined)
Marked response: -35.84%

Exam item: Give the reported value of Percent Effect for this record: `COc1ncc(C2(O)CCN(Cc3cc(F)cc(F)c3)CC2)c(OC)n1`
Marked response: -99.52%

Exam item: Give the reported value of Percent Effect for this record: `CC(C)(NCc1ccc(C#N)cc1)c1ccc2c(c1)OCO2`
Marked response: -3.807%

Exam item: Give the reported value of Percent Effect for this record: Cc1noc(C)c1CN1CCCC1C(=O)OCc1ccccc1 (centres undefined)
Marked response: -68.08%

Exam item: Give the reported value of Percent Effect for this record: COCCCC1(C(=O)O)CCCN(C(=O)c2ccc(Cl)cc2F)C1 (centres undefined)
Marked response: -104.4%

Exam item: Give the reported value of Percent Effect for this record: `Cc1nc(NC2CCN(C(=O)C3CC3)CC2)c2cnn(C)c2n1`
Marked response: -160.6%

Exam item: Give the reported value of Percent Effect for this record: `CCCNC(=O)NC(=O)CNC(C)(C)c1ccc2c(c1)OCO2`
Marked response: -45.43%

Exam item: Give the reported value of Percent Effect for this record: COc1c(F)cc(-c2cccc3c2OC(CN)C3)cc1F (centres undefined)
Marked response: 35.23%

Exam item: Give the reported value of Percent Effect for this record: Cc1noc(C)c1CN1CCCCC1CCc1ccc(O)cc1 (centres undefined)
Marked response: 50.08%
